# system.under.test: MRP1 (Homo sapiens, UniProt P33527)
# Construct: expressed in transfected cells; host or cells: HEK293
# Sequence (P33527 whole entry): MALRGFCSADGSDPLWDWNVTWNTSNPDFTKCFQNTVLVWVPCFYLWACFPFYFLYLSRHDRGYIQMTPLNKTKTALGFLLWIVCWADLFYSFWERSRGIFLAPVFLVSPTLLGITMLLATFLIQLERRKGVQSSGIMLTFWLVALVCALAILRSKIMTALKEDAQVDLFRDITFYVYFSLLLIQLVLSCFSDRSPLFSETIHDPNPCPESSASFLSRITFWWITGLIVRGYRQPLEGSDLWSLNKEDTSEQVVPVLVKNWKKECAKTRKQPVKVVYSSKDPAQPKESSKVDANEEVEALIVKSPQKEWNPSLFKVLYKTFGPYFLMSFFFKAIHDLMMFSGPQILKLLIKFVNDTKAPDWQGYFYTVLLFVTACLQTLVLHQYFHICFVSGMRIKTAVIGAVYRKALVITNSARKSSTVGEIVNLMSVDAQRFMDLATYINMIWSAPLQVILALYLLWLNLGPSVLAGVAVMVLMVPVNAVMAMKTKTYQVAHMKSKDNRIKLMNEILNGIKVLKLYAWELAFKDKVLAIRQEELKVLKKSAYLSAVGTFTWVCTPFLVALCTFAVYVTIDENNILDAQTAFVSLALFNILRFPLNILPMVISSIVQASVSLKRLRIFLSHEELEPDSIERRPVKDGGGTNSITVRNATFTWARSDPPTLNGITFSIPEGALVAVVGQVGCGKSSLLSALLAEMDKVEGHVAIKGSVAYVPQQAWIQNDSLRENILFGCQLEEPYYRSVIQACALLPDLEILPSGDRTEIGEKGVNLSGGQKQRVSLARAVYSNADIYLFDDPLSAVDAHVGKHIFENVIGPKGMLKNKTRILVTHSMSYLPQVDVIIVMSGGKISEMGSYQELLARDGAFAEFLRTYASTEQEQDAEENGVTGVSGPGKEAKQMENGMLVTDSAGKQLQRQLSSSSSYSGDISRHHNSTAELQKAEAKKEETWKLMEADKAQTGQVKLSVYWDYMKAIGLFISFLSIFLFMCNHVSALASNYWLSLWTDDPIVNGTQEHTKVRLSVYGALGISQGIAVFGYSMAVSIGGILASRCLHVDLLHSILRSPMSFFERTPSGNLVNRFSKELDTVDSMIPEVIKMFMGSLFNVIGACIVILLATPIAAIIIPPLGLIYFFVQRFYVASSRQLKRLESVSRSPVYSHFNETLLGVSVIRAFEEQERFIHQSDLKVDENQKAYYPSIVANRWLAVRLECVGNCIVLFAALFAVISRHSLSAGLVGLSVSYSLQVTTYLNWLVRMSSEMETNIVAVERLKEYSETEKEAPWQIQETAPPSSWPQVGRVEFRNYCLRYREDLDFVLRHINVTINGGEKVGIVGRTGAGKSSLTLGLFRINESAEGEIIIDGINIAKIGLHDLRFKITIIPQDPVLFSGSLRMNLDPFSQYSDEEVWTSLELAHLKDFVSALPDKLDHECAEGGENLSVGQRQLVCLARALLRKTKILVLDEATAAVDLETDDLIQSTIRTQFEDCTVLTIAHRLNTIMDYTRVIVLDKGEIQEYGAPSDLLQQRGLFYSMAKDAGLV
# protocol.description: Calcein efflux, MRP1-transfected HEK293 cells (flow cytometry)
# Format: cell-based
# experimental.parameters: 10 μM compound
Listed below: MRP1 inhibition, calcein efflux: treated/control ratio values for each entry.
Quick one: just the number, no unit, thanks!

(Q) Can you look up the measured MRP1 inhibition, calcein efflux: treated/control ratio of Cn1ncc2c(NCCc3ccccc3)nc(Cl)nc21 [NSC19139] for me?
(A) 1.3

(Q) Given the molecule COc1cc2c[n+](C)c3c4cc(OC)c(OC)cc4ccc3c2cc1OC [NSC168201] , what is its reported MRP1 inhibition, calcein efflux: treated/control ratio?
(A) 0.81

(Q) # query: MRP1 inhibition, calcein efflux: treated/control ratio of entry Cn1ncc2c(Nc3cccc(Cl)c3)nc(Nc3cccc(Cl)c3)nc21 [NSC11668]
(A) 1.2

(Q) Fill in the blank: the reported MRP1 inhibition, calcein efflux: treated/control ratio of O=C(O)c1ccc(/C=N/N=C2c3ccccc3-c3ccccc32)cc1 [NSC120688] is ____.
(A) 0.81

// below: MRP1 inhibition, calcein efflux: treated/control ratio requested for another molecule
(Q) // MRP1 inhibition, calcein efflux: treated/control ratio lookup, key: Cc1cc(O)nc2cc3oc4ccccc4c3cc12 [NSC375985]
(A) 1.8

###

compounds and their reported 5D3 staining: treated/control ratio
# system.under.test: ABCG2 (Homo sapiens)
# Format: cell-based
# experimental.parameters: compound, ABCG2-transfected HEK293
Lab note: jot down the number only; don't add units.

Some compounds with known 5D3 staining: treated/control ratio results, for comparison:
(Q) Sample Cn1ncc2c(Nc3cccc(Cl)c3)nc(Nc3cccc(Cl)c3)nc21 — what was its 5D3 staining: treated/control ratio?
(A) 4.0

(Q) Recorded 5D3 staining: treated/control ratio for Cn1ncc2c(NCCc3ccccc3)nc(Cl)nc21 , please?
(A) 3.6

(Q) Look up 5D3 staining: treated/control ratio: COc1cc2c[n+](C)c3c4cc(OC)c(OC)cc4ccc3c2cc1OC
(A) 3.7

New cases:
(Q) Item under review: Cc1cc(O)nc2cc3oc4ccccc4c3cc12 . Reported 5D3 staining: treated/control ratio?
(A) 3.2

(Q) Looking for the measured 5D3 staining: treated/control ratio of COc1ccc2c3c([nH]c2c1)[C@H](C=C(C)C)N1C(=O)[C@@H]2CCCN2C(=O)[C@@H]1C3 [FTC, fumitremorgin C, reference compound] , can you help?
(A) 3.7

(Q) // 5D3 staining: treated/control ratio lookup, key: O=C(O)c1ccc(/C=N/N=C2c3ccccc3-c3ccccc32)cc1
(A) 3.7

###

# system.under.test: ABCG2 (Homo sapiens, UniProt Q9UNQ0)
# Sequence (Q9UNQ0 whole entry): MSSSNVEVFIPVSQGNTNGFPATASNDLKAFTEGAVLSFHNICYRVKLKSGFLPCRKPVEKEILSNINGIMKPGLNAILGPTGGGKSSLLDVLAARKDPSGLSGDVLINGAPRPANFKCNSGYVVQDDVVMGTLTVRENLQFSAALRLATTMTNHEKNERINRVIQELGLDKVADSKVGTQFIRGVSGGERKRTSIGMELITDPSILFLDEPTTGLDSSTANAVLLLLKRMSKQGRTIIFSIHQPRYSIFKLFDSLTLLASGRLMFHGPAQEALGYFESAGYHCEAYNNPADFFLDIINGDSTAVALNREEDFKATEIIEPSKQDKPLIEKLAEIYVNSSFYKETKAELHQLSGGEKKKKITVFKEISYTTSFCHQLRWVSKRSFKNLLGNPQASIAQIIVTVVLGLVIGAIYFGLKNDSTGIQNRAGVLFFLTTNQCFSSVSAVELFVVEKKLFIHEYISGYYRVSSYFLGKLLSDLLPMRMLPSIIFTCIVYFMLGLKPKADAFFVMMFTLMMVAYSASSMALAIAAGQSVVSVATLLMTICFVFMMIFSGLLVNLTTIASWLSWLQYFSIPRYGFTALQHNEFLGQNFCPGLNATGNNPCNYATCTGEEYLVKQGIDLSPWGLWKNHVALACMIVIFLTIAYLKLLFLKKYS
# protocol.description: Photoaffinity labeling of ABCG2 with [125I]-IAAP in MCF-7 FLV1000 membranes
# Format: binding
# experimental.parameters: human, crude membranes of MCF-7 FLV1000 cells expressing ABCG2, pH 7.5, probe [125I]-IAAP, 3-6 nM (2200 Ci/mmole), 20 μM compound, read-out: Blocking of 125I-IAAP binding: % of control binding
outcome.measure: activity at 10 min, 20 µM (%)
Supply the numeric figure in %, leaving out any unit text.

Below, 2 molecules whose answers are already recorded.
(Q) Value lookup for activity at 10 min, 20 µM; key = O=C(O)c1ccc(/C=N/N=C2c3ccccc3-c3ccccc32)cc1
(A) 19.1

(Q) Please look up its activity at 10 min, 20 µM: Cc1cc(O)nc2cc3oc4ccccc4c3cc12
(A) 48.7

Others:
(Q) Request the reported activity at 10 min, 20 µM associated with COc1cc2c[n+](C)c3c4cc(OC)c(OC)cc4ccc3c2cc1OC
(A) 34.2

(Q) Which activity at 10 min, 20 µM is listed for Cn1ncc2c(NCCc3ccccc3)nc(Cl)nc21 ?
(A) 33.5

(Q) What does the record list as activity at 10 min, 20 µM for Cn1ncc2c(Nc3cccc(Cl)c3)nc(Nc3cccc(Cl)c3)nc21 ?
(A) 24.6

Ref: patent US9937217B2
